Origin of the recorded values: patent US10988449B2

experimentalSystem: human FXR (Homo sapiens)
Sequence (Q96RI1 whole entry): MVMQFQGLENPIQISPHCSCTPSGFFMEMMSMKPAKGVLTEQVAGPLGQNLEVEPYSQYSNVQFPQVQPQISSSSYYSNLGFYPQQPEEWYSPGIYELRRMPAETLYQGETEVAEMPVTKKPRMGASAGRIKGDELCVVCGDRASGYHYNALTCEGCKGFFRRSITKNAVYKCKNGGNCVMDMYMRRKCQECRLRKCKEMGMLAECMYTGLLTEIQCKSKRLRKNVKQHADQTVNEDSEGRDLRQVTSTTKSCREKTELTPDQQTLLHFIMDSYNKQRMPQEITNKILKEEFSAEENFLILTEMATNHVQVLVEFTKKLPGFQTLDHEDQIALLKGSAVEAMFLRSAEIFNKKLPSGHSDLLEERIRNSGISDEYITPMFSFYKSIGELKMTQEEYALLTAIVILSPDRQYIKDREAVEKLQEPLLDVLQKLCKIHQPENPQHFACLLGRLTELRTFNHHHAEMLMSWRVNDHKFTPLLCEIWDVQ
experimentNotes: FXR reporter assay (cellular FXR activities)
experimentalContext: FXR reporter cells, 24 hours incubation, luciferase; read-out: Reporter Cell EC50
// EC50 lookup, one value per entry

CCCc1nc2c(C(=O)O)cc(C#Cc3ccc(OCc4c(-c5c(Cl)cccc5Cl)noc4C4CC4)cc3Cl)cc2o1 : 20 to 60 nM
CS(=O)(=O)Nc1cccc(C#Cc2ccc(OCc3c(-c4c(Cl)cccc4Cl)noc3C3CC3)cc2Cl)c1 : 200 to 1000 nM
CCOC(=O)Nc1cc(C#Cc2ccc(OCc3c(-c4c(Cl)cccc4Cl)noc3C3CC3)cc2Cl)cc(C(=O)OC)c1 : > 1000 nM

Shifting focus to the compound that follows.
Need EC50, item CNCc1cc(C#Cc2ccc(OCc3c(-c4c(Cl)cccc4Cl)noc3C3CC3)cc2Cl)cc(C(=O)O)c1
200 to 1000 nM
